Biological target: IRAK4 (Homo sapiens)
Construct: Degradation of IRAK4 in OCI-LY10 was quantitatively measured using Meso Scale Discovery technology; endogenous in cells; host or cells: OCI-LY10
Sequence (Q9NWZ3 whole entry): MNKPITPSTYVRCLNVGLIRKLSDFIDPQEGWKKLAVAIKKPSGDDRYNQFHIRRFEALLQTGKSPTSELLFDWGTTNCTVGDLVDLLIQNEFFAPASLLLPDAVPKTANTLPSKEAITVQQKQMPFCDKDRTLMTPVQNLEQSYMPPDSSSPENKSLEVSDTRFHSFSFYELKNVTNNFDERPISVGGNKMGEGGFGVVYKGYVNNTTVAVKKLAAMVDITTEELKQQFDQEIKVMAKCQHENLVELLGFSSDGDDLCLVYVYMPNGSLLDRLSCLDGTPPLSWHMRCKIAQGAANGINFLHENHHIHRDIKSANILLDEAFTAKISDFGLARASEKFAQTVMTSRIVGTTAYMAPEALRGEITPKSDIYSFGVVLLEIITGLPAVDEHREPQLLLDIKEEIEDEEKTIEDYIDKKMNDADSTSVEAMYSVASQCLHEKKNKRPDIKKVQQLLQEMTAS
Test: IRAK4 MSD Degradation in OCI-LY10
Format: cell-based
Conditions: OCI-LY10 cells, 24 hrs incubation, MSD; read-out: IRAK4 degradation in OCI-LY10 at 24 hrs: DC50
Experimental: Degradation of IRAK4 in OCI-LY10 was quantitatively measured using Meso Scale Discovery technology. […] Compounds were then added to the assay plates with a final top concentration of 1 to 10 μM in a 1:3 dilution series with total of 8 doses. […] The assay plates were then incubated at room temperature for 1 hour, washed 3 times with 150 μL/well TBST buffer, and 150 μL/well MSD reading buffer (Meso Scale Discovery catalog number R92TC-2) was added. […]
parameter.measured: DC50

Prompt line: Quick check: DC50 on IRAK4 (Homo sapiens), item Cn1c(=O)n(C2CCC(=O)NC2=O)c2cccc(C3CCN(C[C@H]4CC[C@H](n5cc6cc(NC(=O)c7cccc(C#N)n7)ncc6n5)CC4)CC3F)c21 (stereo partly shown) ?
Response line: < 0.01 µM

Prompt line: Given the entry Cn1c(NC(=O)c2cccc(C(F)(F)F)n2)cc2cn([C@H]3CC[C@H](CN4CCN(c5cccc6c5n(C)c(=O)n6C5CCC(=O)NC5=O)CC4)CC3)nc2c1=O (stereo partly shown) , what DC50 was observed with IRAK4 (Homo sapiens)?
Response line: > 0.2 µM

Prompt line: Checklist item: DC50 tested on IRAK4 (Homo sapiens), entry Cn1c(=O)n(C2CCC(=O)NC2=O)c2ccc(N3CC(CN4CCN(C[C@H]5CC[C@H](n6cc(NC(=O)c7cnn8ccc(N9C[C@H]%10C[C@@H]9CO%10)nc78)c(C(F)F)n6)CC5)CC4)C3)c(F)c21 (stereo partly shown) , value?
Response line: < 0.01 µM

Prompt line: Request - read-out DC50 | tested on IRAK4 (Homo sapiens) | compound Cn1c(=O)n(C2CCC(=O)NC2=O)c2cccc(C#CCN3C[C@H]4C[C@@H]3CN4C[C@H]3CC[C@H](n4cc(NC(=O)c5cnn6ccc(N7C[C@H]8C[C@@H]7CO8)nc56)c(C(F)F)n4)CC3)c21 (stereo partly shown)
Response line: > 0.2 µM

Prompt line: Short answer please: DC50, IRAK4 (Homo sapiens), entry Cn1c(=O)n(C2CCC(=O)NC2=O)c2cccc(C#CCO[C@@H]3CCN(C[C@H]4CC[C@H](n5cc(NC(=O)c6cnn7ccc(N8C[C@H]9C[C@@H]8CO9)nc67)c(C(F)F)n5)CC4)C3)c21 (stereo partly shown)
Response line: > 0.2 µM

Prompt line: Item: Cn1c(=O)n(C2CCC(=O)NC2=O)c2cccc(C#CCOC3CCN(C[C@H]4CC[C@H](n5cc(NC(=O)c6cncc(C#N)c6)c(C(C)(C)O)n5)CC4)CC3)c21 (stereo partly shown) Test system: IRAK4 (Homo sapiens) Read-out: DC50 Value: ?
Response line: > 0.2 µM

Prompt line: Lab note: need DC50 with IRAK4 (Homo sapiens) for entry CC(C)Oc1ccn2ncc(C(=O)Nc3cn([C@H]4CC[C@H](CN5CCN(CC#Cc6cccc7c6n(C)c(=O)n7C6CCC(=O)NC6=O)CC5)CC4)nc3C(F)F)c2n1 (stereo partly shown) , please look it up.
Response line: > 0.2 µM

Prompt line: Observed DC50 on IRAK4 (Homo sapiens) for COc1cc2nn([C@H]3CC[C@H](CN4CCC5(CC4)CCN(c4cccc6c4n(C)c(=O)n6C4CCC(=O)NC4=O)CC5)CC3)cc2cc1NC(=O)c1cncc(S(=O)(=O)C(F)(F)F)c1 (stereo partly shown) , please.
Response line: > 0.2 µM

Prompt line: // fetch IRAK4 (Homo sapiens) DC50 for Cn1c(=O)n(C2CCC(=O)NC2=O)c2cccc([C@@H]3CCN(C[C@]4(O)CC[C@@H](n5cc6cc(NC(=O)c7cccc(C(F)(F)F)n7)ccc6n5)CC4)C[C@H]3F)c21 (stereo partly shown)
Response line: < 0.01 µM

Prompt line: Checklist item: DC50 tested on IRAK4 (Homo sapiens), entry COc1nn([C@H]2CC[C@H](CN3CCC(OCC#Cc4cccc5c4n(C)c(=O)n5C4CCC(=O)NC4=O)CC3)CC2)cc1NC(=O)c1cnn2ccc(N3C[C@H]4C[C@@H]3CO4)nc12 (stereo partly shown) , value?
Response line: > 0.2 µM
